- tgt: UniProt:Q2NNR5
- Sequence (Q2NNR5 whole entry): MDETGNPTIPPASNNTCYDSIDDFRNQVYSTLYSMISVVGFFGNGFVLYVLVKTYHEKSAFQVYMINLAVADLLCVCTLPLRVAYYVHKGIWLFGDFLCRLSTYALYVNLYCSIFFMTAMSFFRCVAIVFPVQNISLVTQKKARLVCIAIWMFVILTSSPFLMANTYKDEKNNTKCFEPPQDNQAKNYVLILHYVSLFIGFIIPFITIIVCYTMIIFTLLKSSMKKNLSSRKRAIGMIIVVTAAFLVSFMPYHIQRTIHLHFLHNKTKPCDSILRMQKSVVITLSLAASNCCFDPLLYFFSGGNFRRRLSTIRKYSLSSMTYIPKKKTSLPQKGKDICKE
- measurement protocol: LTD4 antagonism, cumulative LTD4 concentration-response curves in guinea pig ileum and trachea (KB by Furthgott method)
- Type: cell-based, guinea pig (male Hartley)
- particulars: 30 minute incubation with antagonist, Table I title names ileal contractions
test readout: pKB (negative log of the dissociation KB)

CCCc1c(COc2ccc(Cc3nnn(CCCN(C)C)n3)cc2)ccc(C(C)=O)c1O
6.65
CCCc1c(COc2ccc(-c3nnn(CCCc4nnn[nH]4)n3)cc2)ccc(C(C)=O)c1O
7.63
CCCc1c(COc2ccc(Cc3nnn(Cc4ccc(-c5nnn[nH]5)cc4)n3)cc2)ccc(C(C)=O)c1O
7.90
CCCc1c(COc2ccc(Cc3nnnn3CCCN(C)C)cc2)ccc(C(C)=O)c1O
6.01
CCCc1c(COc2ccc(Cc3nnn(CCCS(C)(=O)=O)n3)cc2)ccc(C(C)=O)c1O
6.37
CCCc1c(COc2ccc(-c3nnn(CCCN(C)C)n3)cc2)ccc(C(C)=O)c1O
6.37
CCCc1c(COc2ccc(Cc3nnn(CCCCCCc4nnn[nH]4)n3)cc2)ccc(C(C)=O)c1O
7.38
